system: control Gram-negative E. coli 25922 strain; assay: Antibacterial activity, microbroth dilution MIC, E. coli 25922; assay type: cell-based, Escherichia coli; settings: Escherichia coli; E. coli 25922, microbroth dilution; read-out: MIC, 25922
valueType: MIC

Q) What value of measured MIC is listed for CCc1c(-c2ccc(N3CCC(O)(CC)C3)cc2)[nH]c(=O)c(C(=O)O)c1O (stereo not drawn) [Cpd 288] ?
A) 1 to 3.5 mg/L

Q) What value of measured MIC is listed for CCc1c(-c2ccc(N(C)C)c(OC)c2)[nH]c(=O)c(C(=O)O)c1O [Cpd 65] ?
A) 12.5 to 150 mg/L

Q) What value of measured MIC is listed for CCc1cc(C(=O)O)c(=O)[nH]c1-c1ccc(N2CCC[C@H]2COC)cc1 [Cpd 146] ?
A) 12.5 to 150 mg/L

====

Kindly supply the reported MIC values for the records listed here.
system: super sensitive Gram-negative Escherichia coli (E. coli) BAS849; test: Antibacterial activity, microbroth dilution MIC, E. coli BAS849; format: cell-based; conditions: Escherichia coli; E. coli BAS849, microbroth dilution; read-out: MIC, BAS849

Q) MIC of CCc1cc(C(=O)O)c(=O)[nH]c1-c1ccc(N)cc1 on super sensitive Gram-negative Escherichia coli (E. coli) BAS849?
A) < 1 µg/mL

Q) MIC of CCc1cc(C(=O)O)c(=O)[nH]c1-c1ccc(N2C[C@@H](O)[C@@H](O)C2)cc1 on super sensitive Gram-negative Escherichia coli (E. coli) BAS849?
A) < 1 µg/mL

Q) MIC of COCc1c(-c2ccc(N(C)C)cc2)[nH]c(=O)c(C(=O)O)c1O on super sensitive Gram-negative Escherichia coli (E. coli) BAS849?
A) 12.5 to 150 µg/mL

Q) MIC of CCc1c(-c2ccc(OC)c(OC)c2OC)[nH]c(=O)c(C(=O)O)c1O on super sensitive Gram-negative Escherichia coli (E. coli) BAS849?
A) < 1 µg/mL

Q) MIC of CCc1cc(C(=O)O)c(=O)[nH]c1-c1ccc(OC)cc1C on super sensitive Gram-negative Escherichia coli (E. coli) BAS849?
A) 12.5 to 150 µg/mL

Q) MIC of CC#Cc1c(-c2ccc(N(C)C)cc2)[nH]c(=O)c(C(=O)O)c1O on super sensitive Gram-negative Escherichia coli (E. coli) BAS849?
A) 1 to 3.5 µg/mL

Q) MIC of CN(C)c1ccc(-c2[nH]c(=O)c(C(=O)O)c(O)c2C2CCCCC2)cc1 on super sensitive Gram-negative Escherichia coli (E. coli) BAS849?
A) 3.5 to 12.5 µg/mL

Q) MIC of CCc1c(-c2ccc(N3C[C@H](CN(Cc4ccccc4)Cc4ccccc4)[C@@H](C)C3)cc2)[nH]c(=O)c(C(=O)O)c1O on super sensitive Gram-negative Escherichia coli (E. coli) BAS849?
A) 12.5 to 150 µg/mL

====

Kindly supply the reported MIC values for the records listed here.
system: control Gram-negative E. coli 25922 strain; assay: Antibacterial activity, microbroth dilution MIC, E. coli 25922; format: cell-based, Escherichia coli; details: Escherichia coli; E. coli 25922, microbroth dilution; read-out: MIC, 25922

Q) What value of measured MIC is listed for CCc1c(-c2ccc(N3CCC(OCc4ccccc4)CC3)cc2)[nH]c(=O)c(C(=O)O)c1O [Cpd 281] ?
A) 12.5 to 150 µg/mL

Q) What value of measured MIC is listed for CN(C)c1ccc(-c2[nH]c(=O)c(C(=O)O)cc2C2CCCCC2)cc1 [Cpd 6] ?
A) 12.5 to 150 µg/mL

Q) What value of measured MIC is listed for CN(C)c1ccc(-c2[nH]c(=O)c(C(=O)O)c(O)c2CCO)cc1 [Cpd 328] ?
A) 3.5 to 12.5 µg/mL

Q) What value of measured MIC is listed for CCc1cc(C(=O)O)c(=O)[nH]c1-c1ccc(N2CCC[C@H]2C(F)(F)F)cc1 [Cpd 142] ?
A) 12.5 to 150 µg/mL

Q) What value of measured MIC is listed for CCc1cc(C(=O)O)c(=O)[nH]c1-c1ccc(N2C[C@@H](N)[C@H](OC)C2)cc1.Cl [Cpd 134] ?
A) 3.5 to 12.5 µg/mL

Q) What value of measured MIC is listed for CCc1cc(C(=O)O)c(=O)[nH]c1-c1ccc(N2CC[C@H](N)C2)cc1.Cl [Cpd 132] ?
A) 1 to 3.5 µg/mL

Q) What value of measured MIC is listed for CCc1c(-c2ccc(N3C[C@H]4C[C@@H](N(Cc5ccccc5)Cc5ccccc5)C[C@H]4C3)cc2)[nH]c(=O)c(C(=O)O)c1O [Cpd 251] ?
A) 12.5 to 150 µg/mL

Q) What value of measured MIC is listed for CCc1cc(C(=O)O)c(=O)[nH]c1-c1ccc(N2C[C@H]3CC[C@@H](NC)[C@H]3C2)cc1.Cl [Cpd 200] ?
A) 3.5 to 12.5 µg/mL

Q) What value of measured MIC is listed for CCc1cc(C(=O)O)c(=O)[nH]c1-c1ccc(N2CCC(OCc3ccccc3)C2)cc1 (stereo not shown) [Cpd 128] ?
A) 12.5 to 150 µg/mL

Q) What value of measured MIC is listed for CCc1cc(C(=O)O)c(=O)[nH]c1-c1ccc(N2CCC(N)C2)cc1.O=C(O)C(F)(F)F (stereo not shown) [Cpd 131] ?
A) 3.5 to 12.5 µg/mL

Q) What value of measured MIC is listed for CCc1cc(C(=O)O)c(=O)[nH]c1-c1ccc(N2CC=CC2)cc1 [Cpd 301] ?
A) < 1 µg/mL

Q) What value of measured MIC is listed for CCc1c(-c2ccc(N(C)CCO)cc2)[nH]c(=O)c(C(=O)O)c1O [Cpd 18] ?
A) 3.5 to 12.5 µg/mL

Q) What value of measured MIC is listed for CCc1c(-c2ccc(N3CCC(n4ccnn4)C3)cc2)[nH]c(=O)c(C(=O)O)c1O (stereo not shown) [Cpd 287] ?
A) 1 to 3.5 µg/mL

Q) What value of measured MIC is listed for CCc1cc(C(=O)O)c(=O)[nH]c1-c1ccc(N2CC3CC3(N)C2)cc1.Cl (stereo not shown) [Cpd 169] ?
A) 1 to 3.5 µg/mL

Q) What value of measured MIC is listed for CC(C)c1cc(C(=O)O)c(=O)[nH]c1-c1ccc(N2CCCC2)cc1 [Cpd 163] ?
A) 3.5 to 12.5 µg/mL

Q) What value of measured MIC is listed for CCc1c(-c2ccc(N(C)C)cc2OC)[nH]c(=O)c(C(=O)O)c1O [Cpd 61] ?
A) 12.5 to 150 µg/mL

Q) What value of measured MIC is listed for CCc1c(-c2ccc(N3C[C@H]4CCC[C@H](N)[C@H]4C3)cc2)[nH]c(=O)c(C(=O)O)c1O.Cl [Cpd 258] ?
A) 1 to 3.5 µg/mL

Q) What value of measured MIC is listed for CCc1cc(C(=O)O)c(=O)[nH]c1-c1ccc(N(C)c2ccccc2)cc1 [Cpd 158] ?
A) 3.5 to 12.5 µg/mL

Q) What value of measured MIC is listed for CCc1cc(C(=O)O)c(=O)[nH]c1-c1ccc(N2CC[C@H](N=[N+]=[N-])C2)cc1 [Cpd 130] ?
A) 1 to 3.5 µg/mL

Q) What value of measured MIC is listed for CCc1c(-c2ccc(N3C[C@H]4CCC[C@@H](N(C)C)[C@H]4C3)cc2)[nH]c(=O)c(C(=O)O)c1O.Cl [Cpd 261] ?
A) 3.5 to 12.5 µg/mL

Q) What value of measured MIC is listed for CCc1cc(C(=O)O)c(=O)[nH]c1-c1ccc(N2CC[C@H](F)C2)cc1 [Cpd 153] ?
A) < 1 µg/mL

Q) What value of measured MIC is listed for CCc1cc(C(=O)O)c(=O)[nH]c1-c1ccc(N2CCCC2)cc1 [Cpd 99] ?
A) < 1 µg/mL

Q) What value of measured MIC is listed for CCc1c(-c2ccc(C3=CCN(CC)CC3)cc2)[nH]c(=O)c(C(=O)O)c1O [Cpd 341] ?
A) 12.5 to 150 µg/mL

Q) What value of measured MIC is listed for CCc1cc(C(=O)O)c(=O)[nH]c1-c1ccc(N2CCO[C@H]3CNC[C@H]32)cc1.O=C(O)C(F)(F)F [Cpd 186] ?
A) 12.5 to 150 µg/mL

Q) What value of measured MIC is listed for CCc1c(-c2ccc(N3CCC[C@@H](O)C3)cc2)[nH]c(=O)c(C(=O)O)c1O [Cpd 125] ?
A) 3.5 to 12.5 µg/mL

Q) What value of measured MIC is listed for CC#Cc1c(-c2ccc(N(C)C)cc2)[nH]c(=O)c(C(=O)O)c1O [Cpd 333] ?
A) 12.5 to 150 µg/mL

Q) What value of measured MIC is listed for CN(C)c1ccc(-c2[nH]c(=O)c(C(=O)O)cc2C2CC2)cc1 [Cpd 12] ?
A) 3.5 to 12.5 µg/mL

Q) What value of measured MIC is listed for CCc1cc(C(=O)O)c(=O)[nH]c1-c1ccc(N2CCC(CNCc3ccncc3)C2)cc1 (stereo not shown) [Cpd 242] ?
A) 1 to 3.5 µg/mL

Q) What value of measured MIC is listed for CCc1c(-c2ccc(Br)cc2)[nH]c(=O)c(C(=O)O)c1O [Cpd 79] ?
A) 12.5 to 150 µg/mL

Q) What value of measured MIC is listed for CCc1cc(C(=O)O)c(=O)[nH]c1-c1ccc(N(C)C)cc1C [Cpd 57] ?
A) 12.5 to 150 µg/mL

Q) What value of measured MIC is listed for CCc1cc(C(=O)O)c(=O)[nH]c1-c1ccc(N2CCC(n3ccnn3)C2)cc1 (stereo not shown) [Cpd 230] ?
A) 1 to 3.5 µg/mL

# credit: patent US9650395B2
